All values here come from patent US10155743B2.

system: human virus hRSV adapted to the growth in mouse lungs; assay: animal or person; assay type: in vivo; conditions: 30 mg/kg orally once daily for 5 days from 24 h after infection; M ± SD, n = 6
PROPERTY_NAME: Body weight of the mice after infection with hRSV, Day 5

INSERT INTO results (molecule, test_value) VALUES
  ('O=C1CCCC(=O)N1CCc1ccncc1 [Compound 9]', 15.75),
  ('Cn1cnc(CCN2C(=O)CCCC2=O)c1 [Compound 5]', 16.02),
  ('CC1(C)CC(=O)N(CCc2cnc[nH]2)C(=O)C1 [Compound 3]', 16.65),
  ('O=C1CCCC(=O)N1CCc1ncc[nH]1 [Compound 8]', 15.18),
  ('O=C1CCCC(=O)N1CCC1CCCNC1 (centres unmarked) [Compound 121]', 16.35),
  ('O=C1CCCC(=O)N1CCC1CCNC1 (centres unmarked) [Compound 120]', 16.12),
  ('O=C1CCCC(=O)N1CCC1CCCN1 (centres unmarked) [Compound 4]', 16.77),
  ('O=C1CCCC(=O)N1CCc1nc2ccccc2[nH]1 [Compound 124]', 16.43),
  ('O=C1CCCC(=O)N1CCC1CCNCC1 [Compound 123]', 15.87),
  ('O=C1CCCC(=O)N1CCN1CCOCC1 [Compound 117]', 16.07),
  ('O=C1CCCC(=O)N1CCc1cnc[nH]1 [Compound 1]', 16.43);
